Hi there, I'd appreciate the recorded koff for every entry that follows.
Biological target: T1, Len(1-22) monomer peptide (Homo sapiens (Human), UniProt P06312 21-42)
T1 construct: Analyte in SPR; on beads in the pulldown assay; also called Vκ4(LEN(1-22) beads)
T1 peptide: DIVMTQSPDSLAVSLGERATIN
Experiment: SPR, antibody as ligand, peptide as analyte
Number in s⁻¹, nothing else.

I would be grateful if you could share the reported koff for VH9-M64L + VL4 (antibody, V domains shown, Humanized 11-1F4 variant) VH: QVQLQESGPGLVKPSETLSLTCTVSGFSLSSYGVSWIRQPPGKGLEWLGVIWGDGSTNYHPNLLSRVTISVDTSKSQVLFKLSSVTAADTAVYYCATLDYWGQGTSVTVSS VL: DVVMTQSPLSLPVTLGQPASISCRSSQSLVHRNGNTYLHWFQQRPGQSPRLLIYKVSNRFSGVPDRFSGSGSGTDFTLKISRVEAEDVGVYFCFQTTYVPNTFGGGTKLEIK . 0.00208

Input VH9 + VL4-N33E (antibody, V domains shown, Humanized 11-1F4 variant) VH: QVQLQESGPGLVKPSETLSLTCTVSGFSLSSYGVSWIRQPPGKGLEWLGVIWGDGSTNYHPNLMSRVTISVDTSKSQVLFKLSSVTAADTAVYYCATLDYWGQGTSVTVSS VL: DVVMTQSPLSLPVTLGQPASISCRSSQSLVHREGNTYLHWFQQRPGQSPRLLIYKVSNRFSGVPDRFSGSGSGTDFTLKISRVEAEDVGVYFCFQTTYVPNTFGGGTKLEIK 0.00131

Note, next up: VH9-M64A + VL4 (antibody, V domains shown, Humanized 11-1F4 variant) VH: QVQLQESGPGLVKPSETLSLTCTVSGFSLSSYGVSWIRQPPGKGLEWLGVIWGDGSTNYHPNLASRVTISVDTSKSQVLFKLSSVTAADTAVYYCATLDYWGQGTSVTVSS VL: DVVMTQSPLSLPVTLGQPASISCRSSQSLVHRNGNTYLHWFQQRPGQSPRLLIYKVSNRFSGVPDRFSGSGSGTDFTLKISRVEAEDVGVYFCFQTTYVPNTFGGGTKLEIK 0.00104

Could you do the same for VH9-D54Q + VL4 (antibody, V domains shown, Humanized 11-1F4 variant) VH: QVQLQESGPGLVKPSETLSLTCTVSGFSLSSYGVSWIRQPPGKGLEWLGVIWGQGSTNYHPNLMSRVTISVDTSKSQVLFKLSSVTAADTAVYYCATLDYWGQGTSVTVSS VL: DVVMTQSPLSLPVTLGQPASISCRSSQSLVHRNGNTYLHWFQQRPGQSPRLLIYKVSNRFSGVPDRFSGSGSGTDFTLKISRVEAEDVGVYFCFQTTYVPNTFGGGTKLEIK , please? 0.000997

Queued: VH9/VL4 (antibody, V domains shown, Humanized 11-1F4; also called VH9/VL4 parent) VH: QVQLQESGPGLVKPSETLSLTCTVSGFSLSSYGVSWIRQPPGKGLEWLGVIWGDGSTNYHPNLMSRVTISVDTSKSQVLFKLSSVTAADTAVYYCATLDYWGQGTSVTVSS VL: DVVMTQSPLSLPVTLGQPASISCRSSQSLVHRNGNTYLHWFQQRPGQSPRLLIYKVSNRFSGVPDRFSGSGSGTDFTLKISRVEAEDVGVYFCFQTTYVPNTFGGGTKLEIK 0.0026

Again, but for VH9-G55V + VL4 (antibody, V domains shown, Humanized 11-1F4 variant) VH: QVQLQESGPGLVKPSETLSLTCTVSGFSLSSYGVSWIRQPPGKGLEWLGVIWGDVSTNYHPNLMSRVTISVDTSKSQVLFKLSSVTAADTAVYYCATLDYWGQGTSVTVSS VL: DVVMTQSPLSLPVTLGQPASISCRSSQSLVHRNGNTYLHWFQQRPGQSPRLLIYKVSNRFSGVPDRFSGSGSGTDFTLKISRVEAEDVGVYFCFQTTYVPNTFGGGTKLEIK 0.00163

Follow-up item: VH9-D54H + VL4 (antibody, V domains shown, Humanized 11-1F4 variant) VH: QVQLQESGPGLVKPSETLSLTCTVSGFSLSSYGVSWIRQPPGKGLEWLGVIWGHGSTNYHPNLMSRVTISVDTSKSQVLFKLSSVTAADTAVYYCATLDYWGQGTSVTVSS VL: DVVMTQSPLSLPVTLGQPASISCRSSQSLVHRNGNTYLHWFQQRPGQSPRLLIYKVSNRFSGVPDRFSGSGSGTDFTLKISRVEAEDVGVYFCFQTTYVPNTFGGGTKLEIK 0.00139
